# Assayed target: T1, cynomolgus monkey CD73 (on transfected CHOK1 cells) (cynomolgus monkey, UniProt A0A2K5V5U7 27-549)
# T1 construct: whole, on cells; also called CHOK1-cCD73; CHOK1-CCD73
# T1 sequence: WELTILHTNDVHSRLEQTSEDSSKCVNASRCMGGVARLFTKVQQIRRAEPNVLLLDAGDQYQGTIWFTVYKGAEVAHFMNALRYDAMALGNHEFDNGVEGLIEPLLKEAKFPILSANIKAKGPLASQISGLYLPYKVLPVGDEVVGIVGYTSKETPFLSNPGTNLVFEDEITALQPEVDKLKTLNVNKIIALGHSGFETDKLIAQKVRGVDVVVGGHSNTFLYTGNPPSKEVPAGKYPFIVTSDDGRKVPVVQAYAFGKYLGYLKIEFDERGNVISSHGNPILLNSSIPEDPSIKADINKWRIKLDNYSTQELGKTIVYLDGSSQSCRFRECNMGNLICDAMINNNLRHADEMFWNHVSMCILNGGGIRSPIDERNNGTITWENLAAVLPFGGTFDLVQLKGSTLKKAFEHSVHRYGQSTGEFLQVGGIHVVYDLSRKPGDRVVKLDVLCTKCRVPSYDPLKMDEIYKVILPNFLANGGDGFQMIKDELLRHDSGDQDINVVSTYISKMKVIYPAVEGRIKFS
# Assay comment: FACS on CHOK1-cCD73 cells
Measured MAX MFI of individual entries
Your answer is read as MFI, so omit the unit and give the number.

Example binders with recorded MAX MFI:
mAb032 (clone 56F12H8), murine anti-CD73 antibody (antibody, V domains shown, Purified from hybridoma supernatant) VH: EVQLVESGGDLVKPGGSLKLSCAASGFTFSTHGMSWVRQTPDKRLEWVAIISSDRSDIDYTDNVKGRFTISRDNGKNTLYLQMSSLKSEDTAIYHCARHRGYDGFYYAMDYWGQGTSVTVSS VL: DILMTQSPSSLTVTAGEKVTMSCRSSQSLLNSGNQKNYLTWYQQRPGRPPKLLIYWASTRISGVPDRFAGSGSGTDFTLTISIVQAEDLAVYYCQNDYSYPLTFGSGTKLELR	6050
mAb038 (clone 69C9E12), murine anti-CD73 antibody (antibody, V domains shown, Purified from hybridoma supernatant) VH: QVQLQQPGTELVNPGASVKLSCKASGYTFTSYWMHWVKQRPGQGLEWIGNINPSNGGTHYNEKFNNKATLTVDKSSSTAYMQLSSLTSEDSAVFYCARGDYAYDWYFTVWGTGTTVTVSS VL: DIVLTQSPASLAVSLGQRAIISCKASQSVSFAGTGLMHWYQQKPGQQPKLLIYRVSNLEAGIPTRFSGSGSRTDFTLNIHPVEEDDAATYYCQQNREFPWTFGGGTKLEIK	7400
mAb020 (clone 24D6B4), murine anti-CD73 antibody (antibody, V domains shown, Purified from hybridoma supernatant) VH: EVQLQQSGPELVKPGASVKIPCKASGYTFTDYNMDWVKQRHGKSLEWIGDINPNNGGTVYNQKFKGKATLTVDKSSNTAYMELRSLTSEDTAVYYCARISGTGYWYFDVWGTGTTVTVSS VL: DIQMTQSPASLSVSVGETVTITCRASENIYSNLAWYQQKQGKSPQLLVYGATNLADGVPSRFSGSDSGTQYSLKINSLQSEDFGSYYCQHFWGTPWTFGGGTKLEIK	9960
mAb041 (clone 71E10B3), murine anti-CD73 antibody (antibody, V domains shown, Purified from hybridoma supernatant) VH: QVQLQQPGTELVKPGASVKLSCKASGYTFTSYWMHWVKQRPGQGLEWIGNINPSNGGTNYNQKFKSKATLTVDKSSNTASMQLSSLTSEDSAVYYCARGDYGYDWYLDVWGTGTTVTVSS VL: DIVLTQSPASLAVSLGQRAIISCKASQSVSFAGPSLMHWYQQKPGQQPKLLIYRTSNLEAGVPTRFSGSGSGTDFTLNIHPVEEDDAATYYCQQNREFPWTFGGGTKLEIK	9570
mAb030 (clone 42A5A7), murine anti-CD73 antibody (antibody, V domains shown, Purified from hybridoma supernatant; also called antibody 030) VH: DIQLQESGPGLVKPSQSLSLTCSVTGYSITSRYYWNWIRQFPGNKLEWMGYITYDDNNNYNPSLKNRISITRDTSKNQFFLKLNSVTPEDTATYYCARGGWDPFLYWGQGTLVTVSA VL: DIQMTQSPASLSASVGETVTITCRASDNIYSYLAWYQQKQGKSLQLLVDSAKNLGEGVPSRFSGSGSGTQFYLKINSLQPEDFGVYYCQHYYGTPFTFGGGTKLELK	6310

Please turn your attention to the following entry.
// mAb065 (clone 125A4E10), murine anti-CD73 antibody (antibody, V domains shown, Purified from hybridoma supernatant) VH: EVQLQQSGPELVKPGASVKISCKASGYTFTDYYMNWVKQSHGKSLEWIGNINPNNGDTNYNQKFKGKATLTVDKSSSTASMELRSLTSEDSAVYYCANSGYYYFDYWGQGTTLTVSS VL: DIVMTQSPSSLTVTAGEKVTMSCKSSQSLLNSGNQKNYLTWYQQKPGQPPKVLIYWASTRESGVPDRFTGSGSGTDFTLTISSVQAEDLAVYYCQNDYSYPPTFGGGTNLEIK : MAX MFI value = 3250

Value source: patent US20220098319A1
